System: FER;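 further: KINOMEscan kinase panel screen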
STATED CONDITIONS: concentration: 1 μM, replicates: in singlicate; n = 1
MEASUREMENT KIND: %Inh (%)

• Cc1c(Cn2c(C)nn3c(=O)cc(N4CCO[C@H](C)C4)nc23)cccc1C(F)(F)F = 20
• CCC(=O)c1c(-c2ccccc2)c2cc(Cl)ccc2c(=O)n1Cc1cc(C(=O)NC2CC2)n(C)n1 = 0
• O=C(Nc1n[nH]c2cc(-c3ccccc3F)ccc12)C1CC1 = 0
• COc1cc2ncn(-c3cc(OCCCc4ccccc4)c(C(N)=O)s3)c2cc1OC = 10
• COC(=O)c1c(-c2ccccc2)c2cc(Br)ccc2c(=O)n1Cc1ccc(NC(=O)CCC(=O)O)cc1 = 0
• CCS(=O)(=O)c1ccc(OC)c(Nc2ncc(-c3ccc(F)cc3)o2)c1.Cl = 29
• Cn1c(=O)c(F)c(Nc2ccc(I)cc2F)c2c(=O)n(OC[C@H](O)CO)cnc21 = 10
• Nc1nc(N)c2nc(-c3ccccc3)[nH]c2n1 = 14
• Cc1nnc(-c2ccc(C)c(-c3ccc(C(=O)O)cc3)c2)o1 = 0
• O=C(Nc1n[nH]c2nc(-c3ccccc3)c(Br)cc12)C1CC1 = 7
• O=C(NCc1cccs1)c1cc(C(=O)c2c(Cl)cccc2Cl)c[nH]1 = 1
• CN(C)c1cc(-c2ccc3c(N)n[nH]c3c2)nc(N)n1 = 16
• CCCC(=O)Nc1n[nH]c2ncc(-c3cccc4ccccc34)cc12 = 3
• CN1C(=O)C(Nc2cc(Cl)c(O)c(Cl)c2)=C(c2ccc(Cl)cc2)C1=O = 0
• COC(=O)c1c(-c2ccccc2)c2cc(C)ccc2c(=O)n1Cc1ccccc1 = 0

Hello, the source for this data is paper PMC5540273, in case you need it.
